Listed below: IC50 values for each entry.
Test system: HCC1569 cells
METHOD_SUMMARY: Cell proliferation assay (CCK-8), HCC1569
Format: cell-based
STUDY_CONDITIONS: Homo sapiens, HCC1569, 120 h; CCNE1-amplified breast cancer cells; 5-day incubation; mean ± SD, n = 3
PROPERTY_NAME: IC50 (µM)

COMPOUND: Cc1ccc(O)c(C)c1NC(=O)c1cnc(Nc2ccc(C(=O)N3CCOCC3)cc2)nc1N [MY-16]
SYSTEM_TESTED: HCC1569 cells
RESULT_UNIT: µM
LT_GT_EQ: >
READOUT_VALUE: 8
//
COMPOUND: Cc1ccc(O)c(C)c1NC(=O)c1cnc(Nc2ccc3scnc3c2)nc1N [MY-20]
SYSTEM_TESTED: HCC1569 cells
RESULT_UNIT: µM
LT_GT_EQ: =
READOUT_VALUE: 3.54
//
COMPOUND: Cc1ccc(O)c(C)c1NC(=O)c1cnc(Nc2ccc3c(c2)CN(C)C3=O)nc1N [MY-17]
SYSTEM_TESTED: HCC1569 cells
RESULT_UNIT: µM
LT_GT_EQ: >
READOUT_VALUE: 8
//
COMPOUND: Cc1ccc(O)c(C)c1NC(=O)c1cnc(Nc2ccc(N3CCOCC3)cc2)nc1N [MY-10]
SYSTEM_TESTED: HCC1569 cells
RESULT_UNIT: µM
LT_GT_EQ: =
READOUT_VALUE: 2.95
//
COMPOUND: Cc1ccc(O)c(C)c1NC(=O)c1cnc(Nc2ccc(P(C)(C)=O)cc2)nc1N [MY-13]
SYSTEM_TESTED: HCC1569 cells
RESULT_UNIT: µM
LT_GT_EQ: >
READOUT_VALUE: 8

---

SYSTEM_TESTED: UniProt Q99640
Sequence (Q99640 1-499): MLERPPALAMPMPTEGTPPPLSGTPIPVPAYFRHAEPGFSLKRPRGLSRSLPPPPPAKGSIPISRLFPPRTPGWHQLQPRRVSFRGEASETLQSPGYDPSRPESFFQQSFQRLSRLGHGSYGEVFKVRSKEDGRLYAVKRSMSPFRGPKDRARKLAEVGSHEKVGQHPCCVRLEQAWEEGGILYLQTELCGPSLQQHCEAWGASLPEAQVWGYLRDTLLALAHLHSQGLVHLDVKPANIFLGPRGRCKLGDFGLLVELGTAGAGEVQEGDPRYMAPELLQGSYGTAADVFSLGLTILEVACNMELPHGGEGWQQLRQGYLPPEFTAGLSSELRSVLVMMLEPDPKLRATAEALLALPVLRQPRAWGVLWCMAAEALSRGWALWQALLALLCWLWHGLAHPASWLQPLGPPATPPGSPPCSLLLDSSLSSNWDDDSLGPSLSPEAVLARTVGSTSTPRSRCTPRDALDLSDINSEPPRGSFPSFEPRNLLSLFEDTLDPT
PROPERTY_NAME: IC50 (nM)

CHEMICAL_STRUCTURE: Cc1ccc(O)c(C)c1NC(=O)c1cnc(Nc2ccc(Br)cc2)nc1N
PROPERTY_NAME: IC50
RESULT_UNIT: nM
READOUT_VALUE: 36

CHEMICAL_STRUCTURE: Cc1ccc(O)c(C)c1NC(=O)c1cnc(Nc2ccc(P(C)(C)=O)cc2)nc1N
PROPERTY_NAME: IC50
RESULT_UNIT: nM
READOUT_VALUE: 7.9

CHEMICAL_STRUCTURE: Cc1ccc(O)c(C)c1NC(=O)c1cnc(Nc2ccccc2Cl)nc1N
PROPERTY_NAME: IC50
RESULT_UNIT: nM
READOUT_VALUE: 150

CHEMICAL_STRUCTURE: Cc1ccc(Nc2ncc(C(=O)Nc3c(C)ccc(O)c3C)c(N)n2)cc1
PROPERTY_NAME: IC50
RESULT_UNIT: nM
READOUT_VALUE: 28

CHEMICAL_STRUCTURE: Cc1ccc(O)c(C)c1NC(=O)c1cnc(Nc2ccc3scnc3c2)nc1N
PROPERTY_NAME: IC50
RESULT_UNIT: nM
READOUT_VALUE: 5.7

CHEMICAL_STRUCTURE: Cc1ccc(O)c(C)c1NC(=O)c1cnc(Nc2ccccc2)nc1
PROPERTY_NAME: IC50
RESULT_UNIT: nM
READOUT_VALUE: 220

CHEMICAL_STRUCTURE: Cc1ccc(O)c(C)c1NC(=O)c1cnc(Nc2ccc(-c3ccccc3)cc2)nc1N
PROPERTY_NAME: IC50
RESULT_UNIT: nM
READOUT_VALUE: 32

CHEMICAL_STRUCTURE: Cc1ccc(O)c(C)c1NC(=O)c1cnc(Nc2ccc(N3CCOCC3)cc2)nc1N
PROPERTY_NAME: IC50
RESULT_UNIT: nM
READOUT_VALUE: 8.6

CHEMICAL_STRUCTURE: Cc1ccc(O)c(C)c1NC(=O)c1cnc(Nc2ccc3c(c2)CN(C)C3=O)nc1N
PROPERTY_NAME: IC50
RESULT_UNIT: nM
READOUT_VALUE: 3.3

CHEMICAL_STRUCTURE: Cc1ccc(O)c(C)c1NC(=O)c1cnc(Nc2ccc3ncsc3c2)nc1N
PROPERTY_NAME: IC50
RESULT_UNIT: nM
READOUT_VALUE: 3.5

CHEMICAL_STRUCTURE: Cc1ccc(O)c(C)c1NC(=O)c1cnc(Nc2ccc3ccoc3c2)nc1N
PROPERTY_NAME: IC50
RESULT_UNIT: nM
READOUT_VALUE: 8.5

CHEMICAL_STRUCTURE: CCOP(=O)(OCC)c1ccc(Nc2ncc(C(=O)Nc3c(C)ccc(O)c3C)c(N)n2)cc1
PROPERTY_NAME: IC50
RESULT_UNIT: nM
READOUT_VALUE: 2.6

CHEMICAL_STRUCTURE: Cc1ccc(O)c(C)c1NC(=O)c1cnc(Nc2ccc3occc3c2)nc1N
PROPERTY_NAME: IC50
RESULT_UNIT: nM
READOUT_VALUE: 12

CHEMICAL_STRUCTURE: Cc1ccc(O)c(C)c1NC(=O)c1cnc(Nc2ccc(C(=O)N3CCOCC3)cc2)nc1N
PROPERTY_NAME: IC50
RESULT_UNIT: nM
READOUT_VALUE: 6.1

---

Test system: HCC1569 cells
METHOD_SUMMARY: Cell proliferation assay (CCK-8), HCC1569
Format: cell-based
STUDY_CONDITIONS: Homo sapiens, HCC1569, 120 h; CCNE1-amplified breast cancer cells; 5-day incubation; mean ± SD, n = 3
Listed below: IC50 values for each entry.
PROPERTY_NAME: IC50 (µM)

COMPOUND: Cc1ccc(O)c(C)c1NC(=O)c1cnc(Nc2ccc(N3CCN(C)CC3)cc2)nc1N [MY-11]
RESULT_UNIT: µM
READOUT_VALUE: 3.56
//
COMPOUND: CCOP(=O)(OCC)c1ccc(Nc2ncc(C(=O)Nc3c(C)ccc(O)c3C)c(N)n2)cc1 [MY-14]
RESULT_UNIT: µM
READOUT_VALUE: 1.02
//
COMPOUND: Cc1ccc(O)c(C)c1NC(=O)c1cnc(Nc2ccc3ncsc3c2)nc1N [MY-19]
RESULT_UNIT: µM
READOUT_VALUE: 3.14
//
COMPOUND: Cc1ccc(O)c(C)c1NC(=O)c1cnc(Nc2ccc3ccoc3c2)nc1N [MY-18]
RESULT_UNIT: µM
READOUT_VALUE: 6.97
//
COMPOUND: Cc1ccc(O)c(C)c1NC(=O)c1cnc(Nc2ccc([N+](=O)[O-])cc2)nc1N [MY-12]
RESULT_UNIT: µM
READOUT_VALUE: 6.35
//
COMPOUND: Cc1cc2c(C(N)=O)c(N)n(-c3c(C)ccc(O)c3C)c2nc1C [RP-6306, reference compound]
RESULT_UNIT: µM
READOUT_VALUE: 0.11

---

Listed below: IC50 values for each entry.
Tested on: BEAS-2B cells
METHOD_SUMMARY: Anti-proliferative activity in normal lung epithelial cells BEAS-2B
Format: cell-based
STUDY_CONDITIONS: Homo sapiens, BEAS-2B; lung epithelial cells; mean ± SD, n = 3

MOLECULE: CCOP(=O)(OCC)c1ccc(Nc2ncc(C(=O)Nc3c(C)ccc(O)c3C)c(N)n2)cc1
SYSTEM_TESTED: BEAS-2B cells
LT_GT_EQ: >
IC50 (nM): 8000
//
MOLECULE: Cc1cc2c(C(N)=O)c(N)n(-c3c(C)ccc(O)c3C)c2nc1C [RP-6306, reference compound]
SYSTEM_TESTED: BEAS-2B cells
LT_GT_EQ: =
IC50 (nM): 2600

---

System: OVCAR3 cells
METHOD_SUMMARY: Cell proliferation assay (CCK-8), OVCAR3
Assay type: cell-based
STUDY_CONDITIONS: CCNE1-amplified ovarian cancer cells; 5-day incubation; mean ± SD, n = 3
pIC50: −log10 of the molar value.

CHEMICAL_STRUCTURE: CCOP(=O)(OCC)c1ccc(Nc2ncc(C(=O)Nc3c(C)ccc(O)c3C)c(N)n2)cc1
pIC50: 6.10

Hello, the source for this data is paper PMC12467068, in case you need it.
